Test system: Pseudomonas aeruginosa
Assay: Anti-microbial activity assay, P. aeruginosa
Assay type: cell-based
Details: Pseudomonas aeruginosa, read-out: MIC
RESULT TYPE: MIC

| MOLECULE | TEST VALUE |
| --- | --- |
| COc1cc2oc3cc(OC4CC(O)C(O)C(CO)O4)c(OC)c(CC=C(C)C)c3c(=O)c2c(O)c1CC=C(C)C (stereo not drawn) [β-Man2DG (1)] | > 71 µg/mL |
| CO/N=C(\C(=O)N[C@@H]1C(=O)N2C(C(=O)O)=C(COC(C)=O)CS[C@H]12)c1csc(N)n1 [cefotaxime, reference compound] | 8 µg/mL |
| COc1cc2oc3cc(O[C@@H]4O[C@H](CO)[C@@H](O)[C@H](O)[C@H]4O)c(OC)c(CC=C(C)C)c3c(=O)c2c(O)c1CC=C(C)C [β-ManGlc (2), β-mangostin 6-O-β-D-glucopyranoside] | > 29 µg/mL |
| COc1cc2oc3cc(O)c(OC)c(CC=C(C)C)c3c(=O)c2c(O)c1CC=C(C)C [β-mangostin] | > 32 µg/mL |

This collection of values is drawn from paper PMC10427817.
